Experiment: in vivo
Details: C57BL/6, mouse, brain, iv, 8 mg/kg
REPORTED_PROPERTY: half-life at 24 h
Quote the value and follow it with the unit of measurement.

Entry Cc1ccc2nc(-c3ccc(NCCOCCOCCOCCNC(=O)COc4cccc5c4C(=O)N(C4CCC(=O)NC4=O)C5=O)cc3)sc2c1 (stereo unspecified) has what half-life at 24 h?
4.21 h

---

Experiment: in vivo
Settings: C57BL/6, mouse, brain, iv, 8 mg/kg
REPORTED_PROPERTY: concentration at 168.25 h
Quote the value and follow it with the unit of measurement.

Entry Cc1ccc2nc(-c3ccc(NCCOCCOCCOCCNC(=O)COc4cccc5c4C(=O)N(C4CCC(=O)NC4=O)C5=O)cc3)sc2c1 (stereo unspecified) has what concentration at 168.25 h?
2700 nM
